- TARGET OR SYSTEM: EGFR (Homo sapiens)
- Construct: endogenous in cells; host or cells: A431 cells (lysate, captured with SUMO1 anti-EGFR antibody)
- Sequence (P00533 25-1210): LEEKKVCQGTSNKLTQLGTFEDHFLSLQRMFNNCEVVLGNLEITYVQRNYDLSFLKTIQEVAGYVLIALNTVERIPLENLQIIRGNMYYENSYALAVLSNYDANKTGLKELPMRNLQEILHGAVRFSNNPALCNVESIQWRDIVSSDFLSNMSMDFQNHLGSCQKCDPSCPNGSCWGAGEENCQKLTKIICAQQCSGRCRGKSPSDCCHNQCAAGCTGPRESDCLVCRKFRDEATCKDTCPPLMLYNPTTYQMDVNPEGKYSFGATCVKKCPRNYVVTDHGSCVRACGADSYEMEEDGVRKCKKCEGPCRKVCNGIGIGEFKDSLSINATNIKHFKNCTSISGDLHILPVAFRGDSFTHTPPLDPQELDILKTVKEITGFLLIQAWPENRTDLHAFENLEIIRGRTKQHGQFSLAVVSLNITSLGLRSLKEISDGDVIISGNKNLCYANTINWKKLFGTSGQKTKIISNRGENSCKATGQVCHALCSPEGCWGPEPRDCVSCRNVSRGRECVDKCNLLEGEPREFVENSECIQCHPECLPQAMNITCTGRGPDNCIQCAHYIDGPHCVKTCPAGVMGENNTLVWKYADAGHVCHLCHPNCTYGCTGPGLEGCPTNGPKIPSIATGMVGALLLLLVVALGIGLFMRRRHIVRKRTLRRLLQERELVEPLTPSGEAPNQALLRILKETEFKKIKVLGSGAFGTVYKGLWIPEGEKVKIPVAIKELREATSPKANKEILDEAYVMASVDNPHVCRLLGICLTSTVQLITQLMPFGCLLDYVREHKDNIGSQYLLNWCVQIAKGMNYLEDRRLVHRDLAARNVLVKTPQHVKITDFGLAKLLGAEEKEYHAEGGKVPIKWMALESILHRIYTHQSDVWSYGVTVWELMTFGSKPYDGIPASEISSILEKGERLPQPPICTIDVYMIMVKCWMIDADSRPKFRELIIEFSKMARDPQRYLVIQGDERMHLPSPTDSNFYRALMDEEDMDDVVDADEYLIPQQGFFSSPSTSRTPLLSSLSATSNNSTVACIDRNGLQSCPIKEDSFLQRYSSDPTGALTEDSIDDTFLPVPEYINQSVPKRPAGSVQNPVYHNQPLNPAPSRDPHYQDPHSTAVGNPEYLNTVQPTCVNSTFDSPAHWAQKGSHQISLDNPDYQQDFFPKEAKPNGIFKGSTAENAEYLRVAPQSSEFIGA
- PROTOCOL DESCRIPTION: Biochemical EGFR Assay
- Parameters: concentration or dose not given beside the values
- ASSAY SETUP: protocol P.167
Quick reference for Biochem EGFR % Inhibition (P.167) among some compounds
The reply should contain only the number, in %.

Worked examples, 3 compounds total:
COMPOUND	ASSAY VALUE
COc1ccc(C=C2C(=O)Nc3ccc(S(=O)(=O)N4CCOCC4)cc32)cc1F	−13.7
Cc1ccc(C=C2C(=O)Nc3c(Br)cc(Br)c(C)c32)c(C)c1	−22.6
Cc1c(Br)ccc2c1C(=Cc1cc(Br)cs1)C(=O)N2	21.9

query: Recorded Biochem EGFR % Inhibition (P.167) of Cc1c(Br)cc(Br)c2c1C(=Cc1ccc(Cl)c(Cl)c1)C(=O)N2 , please.
result: −12.1

query: Recorded Biochem EGFR % Inhibition (P.167) of CNS(=O)(=O)c1ccc2c(c1)C(=Cc1c(C)[nH]c3ccccc13)C(=O)N2 , please.
result: −5.7

query: Recorded Biochem EGFR % Inhibition (P.167) of O=C1Nc2c(Br)cc(Br)cc2C1=Cc1cc(F)ccc1F , please.
result: 29.4
